Target: T1, rat PAI-1 (rat, UniProt P20961 24-402)
T1 sequence: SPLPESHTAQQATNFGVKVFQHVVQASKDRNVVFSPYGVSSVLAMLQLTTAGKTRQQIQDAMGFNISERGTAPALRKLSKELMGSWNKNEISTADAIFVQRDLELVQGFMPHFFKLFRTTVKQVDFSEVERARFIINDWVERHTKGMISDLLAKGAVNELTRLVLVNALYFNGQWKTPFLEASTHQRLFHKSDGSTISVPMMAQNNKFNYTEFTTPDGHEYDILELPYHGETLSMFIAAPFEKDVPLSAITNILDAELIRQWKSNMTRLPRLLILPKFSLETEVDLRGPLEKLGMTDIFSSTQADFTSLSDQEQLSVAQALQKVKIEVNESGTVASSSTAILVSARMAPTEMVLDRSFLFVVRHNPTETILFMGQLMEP
Assay: cell-based or functional assay
readout name: IC50 ratio rat/human
Form field (numeric): enter value without unit.

{"binder": "Antibody 12, scFv (scFv, V domains shown) VH: QVQLQQSGAEVKKPGSSVKVSCKASGGTFSSYAISWVRQAPGQGLEWMGGIIPTFPTANYAQKFQGRVTITADESTSTAYMELSGLRSEDTAVYYCAREKRQWLEGHFDYWGRGTPVTVSS VL: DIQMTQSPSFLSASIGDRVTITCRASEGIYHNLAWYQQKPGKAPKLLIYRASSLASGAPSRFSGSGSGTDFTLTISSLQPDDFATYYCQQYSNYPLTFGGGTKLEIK", "IC50 ratio rat/human": 34.4}
{"binder": "Antibody 18, scFv (scFv, V domains shown) VH: QVQLQQSGAEVKKPGSSVKVSCKASGGTFSSYAISWVRQAPGQGLEWMGGIIPTFGTANYAQKLQGRVTITADESTSTAYMELSGLRSEDTAVYYCAREKRQWLEGHFDYWGRGTPVTVSS VL: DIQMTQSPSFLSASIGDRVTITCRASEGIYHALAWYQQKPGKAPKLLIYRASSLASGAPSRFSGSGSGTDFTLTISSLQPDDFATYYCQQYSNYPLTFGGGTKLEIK", "IC50 ratio rat/human": 190}
{"binder": "Antibody 05, scFv (scFv, V domains shown) VH: QVQLQQSGAEVKKPGSSVKVSCKASGGTFSSYAISWVRQAPGQGLEWMGGIIPTFSTANYAQKFRGRVTITADESTSTAYMELSGLRSEDTAVYYCAREKRQWLEGHFDYWGRGTPVTVSS VL: DIQMTQSPSFLSASIGDRVTITCRASEGIYHQLAWYQQKPGKAPKLLIYRASSLASGAPSRFSGSGSGTDFTLTISSLQPDDFATYYCQQYSNYPLTFGGGTKLEIK", "IC50 ratio rat/human": 172}
{"binder": "Antibody 01, IgG1, not germlined (antibody, V domains shown) VH: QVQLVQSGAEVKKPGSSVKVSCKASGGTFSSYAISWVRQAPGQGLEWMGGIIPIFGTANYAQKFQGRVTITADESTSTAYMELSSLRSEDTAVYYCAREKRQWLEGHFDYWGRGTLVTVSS VL: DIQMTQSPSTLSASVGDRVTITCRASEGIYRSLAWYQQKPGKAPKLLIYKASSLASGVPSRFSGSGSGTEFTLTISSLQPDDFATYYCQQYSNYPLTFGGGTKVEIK", "IC50 ratio rat/human": 66.2}

Query block: Param item = Antibody 20, IgG1, not germlined (antibody, V domains shown, whole IgG1; also called Ab 20) VH: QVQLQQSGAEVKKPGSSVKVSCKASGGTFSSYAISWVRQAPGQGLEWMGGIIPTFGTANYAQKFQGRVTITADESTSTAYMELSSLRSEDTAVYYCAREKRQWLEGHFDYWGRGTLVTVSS VL: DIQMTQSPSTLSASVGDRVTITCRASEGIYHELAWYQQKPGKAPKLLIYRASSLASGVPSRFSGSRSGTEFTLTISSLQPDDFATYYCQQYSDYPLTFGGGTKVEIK ; retrieve measured IC50 ratio rat/human.
Result block: 1.8
